Hello, the source for this data is patent US8283353B2, in case you need it.

Target: human AT1 receptor (Homo sapiens, UniProt P30556)
Construct: expressed in transfected cells; membrane fraction
Sequence (P30556 1-359): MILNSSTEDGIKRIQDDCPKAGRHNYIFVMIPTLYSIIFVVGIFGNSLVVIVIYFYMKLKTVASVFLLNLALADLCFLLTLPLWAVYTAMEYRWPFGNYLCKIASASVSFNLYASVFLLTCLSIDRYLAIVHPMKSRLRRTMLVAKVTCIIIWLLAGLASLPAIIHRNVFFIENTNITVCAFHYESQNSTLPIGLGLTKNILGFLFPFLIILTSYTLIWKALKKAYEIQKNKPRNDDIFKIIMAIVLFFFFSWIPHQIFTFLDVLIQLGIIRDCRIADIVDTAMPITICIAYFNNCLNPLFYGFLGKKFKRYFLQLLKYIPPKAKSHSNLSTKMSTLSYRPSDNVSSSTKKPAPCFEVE
Test: AT1 receptor antagonistic activity: [125I]-angiotensin II binding assay on human AT1 receptor-expressing CHO-K1 cellular membrane fraction
Settings: 22.5 pM [125I]-angiotensin II, 1 hr room temperature
Description: CHO-K1 cell (RIKEN, Japan) capable of stable expression of human AT1 receptor was cultured, recovered, suspended in homogenize buffer (10 mM NaHCO3 (pH 7.4), 5 mM EDTA, 1× Complete EDTA free) [manufactured by Roche, Switzerland], and homogenized. The homogenate was centrifuged at low-speed (900×g, 10 min, 4° C.), and the supernatant was recovered and ultracentrifuged (90,000×g, 1 hr, 4° C.). […]
IC50 listing for selected molecules.
Use nM as the unit, but write only the number.

Some molecules with known IC50 results, for comparison:
[[record]]
molecule = "CCCc1c(Cc2ccc(-c3ccccc3-c3noc(=O)[nH]3)cc2F)c(=O)n(-c2ccc(OC(C)C)cc2)c2ncnn12"
tgt = "human AT1 receptor (Homo sapiens, UniProt P30556)"
u = "nM"
numeric_value = 2.1

[[record]]
molecule = "CCCc1c(Cc2ccc(-c3ccccc3-c3noc(=O)[nH]3)cc2)c(=O)n([C@H]2CC[C@H](OCC(O)C(F)(F)F)CC2)c2ncnn12 (stereo partly drawn)"
tgt = "human AT1 receptor (Homo sapiens, UniProt P30556)"
u = "nM"
numeric_value = 2

[[record]]
molecule = "CCCCc1c(Cc2ccc(-c3ccccc3-c3noc(=O)[nH]3)cc2)c(=O)n(C2CCC(OC)CC2)c2ncnn12 (stereo not drawn)"
tgt = "human AT1 receptor (Homo sapiens, UniProt P30556)"
u = "nM"
numeric_value = 1.9


Data request: Could you share what IC50 was measured for `CCCc1c(Cc2ccc(-c3ccccc3-c3noc(=O)[nH]3)cc2)c(=O)n([C@H]2CC[C@@H](Oc3ccc(C(C)=O)cc3)CC2)c2ncnn12` , tested on human AT1 receptor (Homo sapiens, UniProt P30556)?
Data returned: 2.2

Data request: # get_value(readout= IC50, system= human AT1 receptor (Homo sapiens, UniProt P30556)) for `CCCc1c(Cc2ccc(-c3ccccc3-c3noc(=O)[nH]3)cc2)c(=O)n(Cc2ccc(F)cc2)c2nc(C)nn12`
Data returned: 1.7

---

Biological target: human PPARγ (Homo sapiens)
Construct: expressed in transfected cells
Sequence (P37231 29-505): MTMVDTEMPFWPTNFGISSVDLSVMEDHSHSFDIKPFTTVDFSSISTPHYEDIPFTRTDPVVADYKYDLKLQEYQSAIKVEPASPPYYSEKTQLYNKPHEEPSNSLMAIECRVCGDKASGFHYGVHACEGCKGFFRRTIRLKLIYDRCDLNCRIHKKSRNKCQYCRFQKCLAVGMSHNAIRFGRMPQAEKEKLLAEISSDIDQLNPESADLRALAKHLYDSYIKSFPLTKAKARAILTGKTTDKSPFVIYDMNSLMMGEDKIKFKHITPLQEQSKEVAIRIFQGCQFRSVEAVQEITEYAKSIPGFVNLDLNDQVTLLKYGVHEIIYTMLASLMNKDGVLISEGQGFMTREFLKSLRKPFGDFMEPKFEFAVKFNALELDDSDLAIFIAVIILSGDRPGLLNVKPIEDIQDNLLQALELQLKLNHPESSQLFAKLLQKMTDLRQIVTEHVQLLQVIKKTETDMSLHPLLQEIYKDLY
Sequence (P19793 whole entry partner): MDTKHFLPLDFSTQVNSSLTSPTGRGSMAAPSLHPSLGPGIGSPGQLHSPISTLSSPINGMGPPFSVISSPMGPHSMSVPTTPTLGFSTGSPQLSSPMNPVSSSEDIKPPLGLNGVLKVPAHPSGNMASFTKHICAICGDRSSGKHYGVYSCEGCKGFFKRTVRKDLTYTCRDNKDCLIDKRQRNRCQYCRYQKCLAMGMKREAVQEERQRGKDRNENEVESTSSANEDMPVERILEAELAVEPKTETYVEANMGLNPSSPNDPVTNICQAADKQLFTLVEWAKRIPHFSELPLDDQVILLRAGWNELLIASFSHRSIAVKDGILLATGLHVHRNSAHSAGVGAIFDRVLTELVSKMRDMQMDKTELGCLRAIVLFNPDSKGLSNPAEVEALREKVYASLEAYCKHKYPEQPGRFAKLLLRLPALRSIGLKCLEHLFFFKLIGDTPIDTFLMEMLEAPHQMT
Test: PPARγ agonistic activity: luciferase reporter assay in PPARγ:RXRα:4ERPP/CHO-K1 cells
Format: cell-based
Conditions: CHO-K1, test compound 10^−6 M; luciferase activity of control compound X (1 μM) = 100%, non-administration group = 0%
In this section we review reported activation at 1 µM values for a set of compounds.
Write the answer as a number in %, unit excluded.

// known answers, use as guide
[[record]]
compound = "CCCc1c(Cc2ccc(-c3ccccc3-c3noc(=O)[nH]3)cc2)c(=O)n(C2CCC3(CC2)O[C@H]2COC[C@H]2O3)c2ncnn12 (stereo partly drawn)"
numeric_value = 28

[[record]]
compound = "CCCc1c(Cc2ccc(-c3ccccc3-c3noc(=O)[nH]3)cc2)c(=O)n(CC2(C)CC2)c2nc(C)nn12"
numeric_value = 27

[[record]]
compound = "CCCc1c(Cc2ccc(-c3ccccc3-c3noc(=O)[nH]3)c(C)c2)c(=O)n([C@H]2CC[C@H](OCC(C)(C)O)CC2)c2nc(C)nn12"
numeric_value = 18

[[record]]
compound = "CCCc1c(Cc2ccc(-c3ccccc3-c3noc(=O)[nH]3)cc2)c(=O)n([C@H]2CC[C@](C)(OCC(C)(C)O)CC2)c2ncnn12"
numeric_value = 23

[[record]]
compound = "CCCc1c(Cc2ccc(-c3ccccc3-c3noc(=O)[nH]3)cc2)c(=O)n([C@H]2CC[C@H](OCC(C)(O)CF)CC2)c2ncnn12 (stereo partly drawn)"
numeric_value = 24


Data request: Return reported activation at 1 µM; argument: CCCc1c(Cc2ccc(-c3ccccc3-c3noc(=O)[nH]3)cc2)c(=O)n(C2CCC(C)OC2)c2nc(C)nn12 (stereo not drawn)
Data returned: 20

Data request: Which measured activation at 1 µM value corresponds to `CCCc1c(Cc2ccc(-c3ccccc3-c3noc(=O)[nH]3)cc2)c(=O)n([C@H]2CC[C@H](OCC3(CO)CCC3)CC2)c2ncnn12` ?
Data returned: 27
